Every entry's value here was drawn from the supplement of paper PMC10065799.

system: Fer (mouse); assay: phosphorylation enrichment, bacterial display (enrichment ratio); higher = better substrate or ligand; peptides without Tyr show the background;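 note: 11-residue human phosphosite peptides and single-mutation variants displayed on the E. coli surface, counted by deep sequencing, each peptide's frequency after selection divided by its frequency in the unselected input library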;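 note: frequency after pTyr selection over input frequency; kinase dosed for 20-30% of maximal phosphorylation in three min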
Lab note: compare phosphorylation enrichment against 0.6. Equal or greater, write YES. Smaller, write NO.

Evaluate RQQEVYLLFKQ [RARRES1_Y159_D158V_YF] : phosphorylation enrichment at minimum 0.6? NO

Check this sequence for phosphorylation enrichment at or above 0.6: STTSDYQWDVS [MTDH_Y364] NO

Quick check, phosphorylation enrichment >= 0.6? PRPACYPSTVS [CACNA1C_Y1832_G1831C] NO

Record DWRQEYVLNEP [TGM1_Y267_S272P] ; criterion: phosphorylation enrichment no lower than 0.6. Met? NO

Given the entry PTYEHYANSTQ [SLC12A3_Y70] , answer whether its phosphorylation enrichment meets or surpasses 0.6. YES

Confirm if phosphorylation enrichment reported for the sequence EKEQNYDLTQV [ECD_Y448_E452Q] is 0.6 or above. YES

Test whether the sequence HRDDGYMPMSP [IRS1_Y612_T608R] records phosphorylation enrichment of 0.6 or higher. YES

----------
system: c-Src; test: phosphorylation enrichment, bacterial display (enrichment ratio); higher = better substrate or ligand; peptides without Tyr show the background
Test readout: phosphorylation enrichment
Just the number, please, no unit after it.

DQLVKYGVNPG [TMPO_Y127]
0.294
EAVSIYQFYGQ [CBLC_Y402_H405Y]
7.02
MPIPMYDASQA [CARMIL1_Y637]
0.46
RDLEQYVNNVN [PCDH19_Y1097]
0.541
VKKNRYKDILP [PTPN12_Y64]
0.653

Can you look up phosphorylation enrichment on c-Src for VQDPAYLRDID [OPRK1_Y369] ? 0.425

API: value(readout= phosphorylation enrichment, system= c-Src, query= SLHPGYNFRFA [P2RX7_Y291_Y288H_YF] ) 0.385

----------
target: FGFR1 (UniProt P11362); experiment: phosphorylation enrichment, bacterial display (enrichment ratio); higher = better substrate or ligand; peptides without Tyr show the background
Sequence (P11362 whole entry, looked up): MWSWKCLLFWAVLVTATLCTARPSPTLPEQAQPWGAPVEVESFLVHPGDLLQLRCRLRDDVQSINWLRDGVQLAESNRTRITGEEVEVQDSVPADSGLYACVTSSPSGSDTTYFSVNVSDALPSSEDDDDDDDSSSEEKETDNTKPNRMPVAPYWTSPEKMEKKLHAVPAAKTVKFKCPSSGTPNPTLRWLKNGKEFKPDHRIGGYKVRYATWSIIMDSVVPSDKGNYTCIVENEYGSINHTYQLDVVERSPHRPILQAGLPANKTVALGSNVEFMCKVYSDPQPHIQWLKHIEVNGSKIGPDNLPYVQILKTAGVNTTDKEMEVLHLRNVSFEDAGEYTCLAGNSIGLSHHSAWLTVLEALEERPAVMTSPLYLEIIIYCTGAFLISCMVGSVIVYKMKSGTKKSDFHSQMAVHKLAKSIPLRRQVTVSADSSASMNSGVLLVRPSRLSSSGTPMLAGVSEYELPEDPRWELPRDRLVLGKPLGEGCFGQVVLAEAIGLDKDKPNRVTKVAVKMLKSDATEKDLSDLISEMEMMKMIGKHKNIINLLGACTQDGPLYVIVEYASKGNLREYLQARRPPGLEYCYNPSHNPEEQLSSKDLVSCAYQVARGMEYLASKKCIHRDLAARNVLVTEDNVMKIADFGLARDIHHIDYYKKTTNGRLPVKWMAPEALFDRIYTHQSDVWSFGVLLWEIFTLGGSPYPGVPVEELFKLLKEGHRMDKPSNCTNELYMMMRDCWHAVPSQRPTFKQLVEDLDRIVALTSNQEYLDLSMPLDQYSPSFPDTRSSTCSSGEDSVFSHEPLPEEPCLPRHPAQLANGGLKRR
phosphorylation enrichment for assorted sequences
# print the numeric value only

AFLLLYFNDTH [BMP15_Y235]
0.49
DTSKMYIPHTD [EXPH5_Y782]
0.445
FDDGKYVFVVT [RPS6KA3_Y488_YF]
0.632
DWRQEYVLNEP [TGM1_Y267_S272P]
1.7
DKATEYIQYVR [MAX_Y70_M74V]
0.506
LGRGKSSEVFE [CSNK2A1_Y50_Y50S]
0.438

Would you kindly share the measured phosphorylation enrichment for PPPELYFVKVD [TERT_Y707] ? 0.638

----------
system: c-Abl (mouse); experiment: phosphorylation enrichment, bacterial display (enrichment ratio); higher = better substrate or ligand; peptides without Tyr show the background
Test readout: phosphorylation enrichment

Form field: reported phosphorylation enrichment of VNFDDYTVNLG [GFPT1_Y367] 0.69

Which phosphorylation enrichment value is on record for KPGVNYFFQVS ? 0.801

So what does the record say about phosphorylation enrichment for LTERGYSFTTT [ACTB_Y198] ? 0.586

Give the measured phosphorylation enrichment of WASGIYFVPKG [APBB1IP_Y340_R335W_YF] . 28.7

Would you kindly share the measured phosphorylation enrichment for CGTPTYLAPEV [CHEK2_Y390] ? 7.74

For HTEGEYSSLEH [IDH3B_Y171_Q166H] , what is its reported phosphorylation enrichment? 0.97

Request the reported phosphorylation enrichment associated with DFFDLYGGEKF [PTPN11_Y66_YF] 0.967

Find the recorded phosphorylation enrichment belonging to NTGVFYDLFGG [PTPN11_Y63_D61V_YF] and report it. 0.797

Name the recorded phosphorylation enrichment for LYSGDCYRIQG [DDR2_Y740_Y740C] . 0.808

Tell me the measured phosphorylation enrichment of SHISGYAALRR [RAPH1_Y1226_T1228A] , please. 0.726

phosphorylation enrichment for LENSTYQYICV [CRB1_Y760_R764C] ? 1.61

Which measured phosphorylation enrichment value corresponds to FLENFYDLEKD [MMP3_Y42_K45E_YF] ? 0.764

Which phosphorylation enrichment value belongs to LQRVQCDLQKA [DSP_Y1512_Y1512C] ? 0.987

Param item = HHTDEYEYDEL [TGM1_Y134] ; retrieve measured phosphorylation enrichment. 1.08

What measured phosphorylation enrichment goes with PTATSYNPNLA [GABRA1_Y375_T376N] ? 1.57

I would be grateful if you could share the reported phosphorylation enrichment for SHNKYYMLVAH [MFSD8_Y134_R139H] . 0.574

phosphorylation enrichment lookup needed for DPHKIFEFVNS [IRF3_Y107_Y107F] , thanks. 0.431

Can you look up the measured phosphorylation enrichment of KDYETYQPFQN [CTNND2_Y1157] for me? 0.846
